Test: qHTS Assay for Inhibitors of Fructose-1,6-bisphosphate Aldolase from Giardia Lamblia: Coupling assay counterscreen; further: on the % scale 0 is the no-effect control and ±100 the full control effect
Details: coupling enzyme system counterscreen, AmpLite Red fluorescence; at 58.2 µM (top of the series)
About 2,000 (0.69%) of roughly 290,000 compounds were called active. The list comes from a sample in which actives are over-represented; it also holds close analogues and randomly drawn compounds.
Note to self: values exactly at -10% are 1 (yes). So activity change, negative = inhibition at or above -10% is 1 (yes), below is 0 (no).

>  <compound>
Clc1ccccc1-c1cc(NCCN2CCOCC2)ncn1

>  <assigned_label>
1 (yes)

$$$$
>  <compound>
CCOC(=O)C1(CCOc2ccccc2)CCN(Cc2cc(OC)c(O)cc2Cl)CC1

>  <assigned_label>
1 (yes)

$$$$
>  <compound>
CCCCC/C=C\C/C=C\CCCCCCCCCC(=O)NCC(=O)O

>  <assigned_label>
1 (yes)

$$$$
>  <compound>
O=C1C(c2ccccn2)=[N+]([O-])c2ccccc21

>  <assigned_label>
0 (no)

$$$$
>  <compound>
C=CC1=C2C=C(C3CC3)N(CC(C)C)C=C2C(=O)C(C)(OC(=O)c2ccco2)C1=O (stereo not given)

>  <assigned_label>
0 (no)

$$$$
>  <compound>
CC(C)(C)OC(=O)NCCCC1=CC2=CC(=O)C(C)(OC(=O)c3ccco3)C(=O)C2=CO1 (stereo not given)

>  <assigned_label>
1 (yes)

$$$$
>  <compound>
O=C(NC1CC1)C1=C[C@H](c2c[nH]c3ccccc23)C[C@H](OCc2ccc(CO)cc2)O1

>  <assigned_label>
1 (yes)

$$$$
>  <compound>
O=Cc1cn(-c2ccccc2)nc1-c1ccccn1

>  <assigned_label>
1 (yes)

$$$$
>  <compound>
Cc1ccc(C(=O)NCCN2CCOCC2)cc1C

>  <assigned_label>
1 (yes)

$$$$
>  <compound>
C=CC1=C2C=C(C3CC3)N(C(CO)CO)C=C2C(=O)C(C)(OC(=O)c2ccco2)C1=O (stereo not given)

>  <assigned_label>
0 (no)

$$$$
